// data source = ChEMBL document CHEMBL1144304

# TARGET OR TEST SYSTEM: Gonadotropin-releasing hormone receptor (Homo sapiens)
# Sequence (P30968 whole entry): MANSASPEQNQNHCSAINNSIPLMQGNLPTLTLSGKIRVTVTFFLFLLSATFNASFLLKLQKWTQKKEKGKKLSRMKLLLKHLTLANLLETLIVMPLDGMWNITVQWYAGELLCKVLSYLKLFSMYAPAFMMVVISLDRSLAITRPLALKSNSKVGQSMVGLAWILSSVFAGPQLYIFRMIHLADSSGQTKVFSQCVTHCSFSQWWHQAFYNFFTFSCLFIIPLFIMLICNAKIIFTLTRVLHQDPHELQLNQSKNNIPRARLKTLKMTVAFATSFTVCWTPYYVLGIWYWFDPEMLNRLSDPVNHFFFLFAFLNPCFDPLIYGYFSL
# MEASUREMENT PROTOCOL: Inhibitory concentration towards human leutinizing releasing hormone receptor
ASSAY READOUT: IC50 (nM)

Reference set, count: 3
CCOc1nc2cc(S(=O)(=O)NCc3ccc(F)cc3)ccc2n1CCN1CCOCC1	2100
O=S(=O)(NCc1ccc(F)cc1)c1ccc2c(c1)nc(SCCc1cccnc1)n2Cc1ccccc1	120
O=S(=O)(NCc1ccc(F)cc1)c1ccc2c(c1)nc(SCc1ccccn1)n2Cc1ccccc1	820

P. CCSc1nc2cc(S(=O)(=O)NCc3ccc(OC)cc3)ccc2n1Cc1ccccc1
Q. CCSc1nc2cc(S(=O)(=O)NCc3ccc(F)cc3)ccc2n1Cc1ccccc1
[ask] Pick one: P or Q . Which has the bigger IC50 number? Which one? Tell me its label.
[reply] P
(P: 1100 nM, Q: 250 nM)

I. O=S(=O)(NCc1ccc(F)cc1)c1ccc2c(c1)nc(SCCO)n2Cc1ccccc1
II. CCSc1nc2cc(S(=O)(=O)NCc3cccc(OC)c3)ccc2n1Cc1ccccc1
[ask] Pick one: I or II . Which has the bigger IC50 number? Which one? Tell me its label.
[reply] II
(II: 4800 nM, I: 270 nM)

====

# TARGET OR TEST SYSTEM: Gonadotropin-releasing hormone receptor (Rattus norvegicus)
# Sequence (P30969 whole entry): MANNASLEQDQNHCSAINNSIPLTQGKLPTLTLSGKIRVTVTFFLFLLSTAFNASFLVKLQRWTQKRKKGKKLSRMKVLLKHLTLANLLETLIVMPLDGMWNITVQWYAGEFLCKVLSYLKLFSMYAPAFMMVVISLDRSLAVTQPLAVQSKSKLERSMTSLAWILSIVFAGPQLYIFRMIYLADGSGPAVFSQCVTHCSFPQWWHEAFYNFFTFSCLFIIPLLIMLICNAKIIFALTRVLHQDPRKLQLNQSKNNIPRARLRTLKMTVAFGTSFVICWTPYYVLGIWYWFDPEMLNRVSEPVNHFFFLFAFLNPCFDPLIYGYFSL
ASSAY READOUT: IC50 (nM)

Reference set, count: 4
CCSc1nc2cc(S(=O)(=O)NCc3ccc(F)cc3)ccc2n1Cc1ccccc1	200
O=S(=O)(NCc1ccc(F)cc1)c1ccc2c(c1)nc(SCCc1ccccn1)n2Cc1ccccc1	280
CCOc1nc2cc(S(=O)(=O)NCc3ccc(F)cc3)ccc2n1CCN1CCOCC1	7200
CSc1nc2cc(S(=O)(=O)NCc3ccc(F)cc3)ccc2n1Cc1ccccc1	210

A. CCSc1nc2cc(S(=O)(=O)NCc3ccc(Cl)cc3)ccc2n1Cc1ccccc1
B. O=S(=O)(NCc1ccc(F)cc1)c1ccc2c(c1)nc(SCCO)n2Cc1ccccc1
[ask] Pick one: A or B . Which has the bigger IC50 number? Which one? Tell me its label.
[reply] B
(B: 600 nM, A: 330 nM)
